system: P. falciparum 3D7; experiment: DAPI stain fluorescent high content imaging assay, P. falciparum 3D7 (confirmatory screen, Avery); settings: Plasmodium falciparum, 3D7, read-out: EC50_nM
Values of EC50 strictly less than 900 nM map to Y, and values of at least 900 nM map to N.

Compound	Assigned category
CCN(CC)S(=O)(=O)c1ccc(-c2csc(Nc3ccc(C)c(C)c3)n2)cc1 [MMV009108]	Y
O=C(NC1CCN(Cc2ccccc2)CC1)c1cc2nc(-c3ccc(Cl)s3)cc(C(F)(F)F)n2n1 [MMV396635]	N
COc1ccc(Nc2nc(NCc3ccccc3)c3ccccc3n2)cc1 [MMV000963]	Y
COc1ccc(N2CCN(C(CNC(=O)C3CCCCC3)c3ccc4c(c3)OCO4)CC2)cc1 (stereo not shown) [MMV019662]	N
OC(CNC1CCCCC1)Cn1c2ccc(I)cc2c2cc(I)ccc21 (stereo not shown) [MMV665882]	Y
COc1ccc2c(c1OC)C(=O)N1c3ccccc3N=C(c3ccc(C)cc3)CC21 (stereo not shown) [MMV000917]	N
CCOC(=O)C1=CN(C)C=C(C(=O)OCC)C1c1cc(Br)c(OCC)c(OC)c1 [MMV006656]	Y
O=C(NC(c1ccccc1)c1ccc2cccnc2c1O)c1ccccc1 (stereo not shown) [MMV666080]	N
CC(C)CCNCC(O)Cn1c2ccccc2c2ccccc21 (stereo not shown) [MMV006787]	Y
CCCc1c(C)nc2ccc(Br)cc2c1O [MMV666095]	N
CN1c2ccccc2N(C)C1c1ccc2c(c1)OCO2 [MMV666009]	N
Cc1cc(N2CCCC2)nc(Nc2ccc(NC(=O)CCc3ccccc3)cc2)n1 [MMV396669]	N
CC(NCc1ccccc1)c1cc(Cl)ccc1O (stereo not shown) [MMV665789]	Y
CCn1c(SCC(=O)Nc2cc(C(F)(F)F)ccc2Cl)nc2ccccc2c1=O [MMV666103]	N
COC(=O)c1ccc(Cl)c2c1C1C=CCC1C(c1cccc3ccccc13)N2 (stereo not shown) [MMV667489]	N
Cc1ccc2c(C)nc(Nc3nc(C)cc(-c4ccccc4)n3)nc2c1 [MMV007041]	N
COc1ccc(C(C)=O)cc1N1C(=O)C2C(C1=O)C1(c3ccccc3)C(=O)C2(c2ccccc2)C(c2ccc(C)cc2)=C1c1ccc(C)cc1 (stereo not shown) [MMV007695]	Y
CC(C)(C)c1ccc(C2CC3=Nc4ccccc4N(C(=O)c4ccccc4Cl)C(c4ccc(F)cc4)C3=C(O)C2)cc1 (stereo not shown) [MMV011436]	N
O=C1c2ccccc2-c2nnc(-c3ccc(Br)cc3)cc21 [MMV665934]	N

###

tested on: P. falciparum 3D7; assay: DAPI stain fluorescent high content imaging assay, P. falciparum 3D7 (confirmatory screen, Avery); conditions: Plasmodium falciparum, 3D7, read-out: percent_inh @ 5 uM
Property name: inhibition of growth at 5 µM (%)

>>> df
                                    compound                 property_name  u  measured_value
 0  COc1ccc(-c2nc(NC(=O)CS(=O)(=O)c3ccc(F)cc3)sc2C)cc1  inhibition of growth at 5 µM  %              97
 1  CCCn1c(=N)c(C(=O)NC2CCCCC2)cc2c(=O)n3cccc(C)c3nc21  inhibition of growth at 5 µM  %              96
 2       N=c1c2ccccc2nnn1-c1cccc(C(F)(F)F)c1  inhibition of growth at 5 µM  %              83
 3  CCOC(=O)c1c(NC(=O)c2ccccc2)sc2c(O)c(CN(CC)CC)ccc12  inhibition of growth at 5 µM  %              96
 4  Oc1c(C(Nc2ccccn2)c2cccc(Oc3ccccc3)c2)ccc2cccnc12 (stereo not drawn)  inhibition of growth at 5 µM  %              97
 5  Oc1ccc(-c2nc(-c3ccc4oc5ccc(-c6[nH]c(-c7ccc(O)cc7)nc6-c6ccccc6)cc5c4c3)c(-c3ccccc3)[nH]2)cc1  inhibition of growth at 5 µM  %              98
 6  CCCC(c1nnnn1C1CCCCC1)N1CCN(C(=O)c2ccco2)CC1 (stereo not drawn)  inhibition of growth at 5 µM  %              82
 7  COc1cccc(-c2nn(C)c3sc(C(=O)NCCN4CCN(c5ccccc5F)CC4)cc23)c1  inhibition of growth at 5 µM  %              91
 8  CCOc1cc(Cl)c(C(C)NC(=O)c2ccccc2)cc1OCC (stereo not drawn)  inhibition of growth at 5 µM  %              96
 9  CCOC(=O)c1c(C)n(-c2ccc(Cl)cc2)c2ccc(OC(=O)C=Cc3ccccc3)cc12  inhibition of growth at 5 µM  %              97
10     Fc1ccc2[nH]c3c(NCCCN4CCOCC4)ncnc3c2c1  inhibition of growth at 5 µM  %              98
11  CCCCCn1c(=N)n(CC(O)COc2cccc(C)c2)c2ccccc21 (stereo not drawn)  inhibition of growth at 5 µM  %              96
12         O=c1nc(C=Cc2ccc(Br)cc2)oc2ccccc12  inhibition of growth at 5 µM  %              94
13  CCOc1ccc(-n2cc(-c3ccccc3)c3c(SCc4cc(C)ccc4C)ncnc32)cc1  inhibition of growth at 5 µM  %              97
14  COc1ccccc1CNC(=O)CCn1c(=O)[nH]c2ccccc2c1=O  inhibition of growth at 5 µM  %              64
15        O=C(Nc1nc(-c2ccccn2)cs1)c1ccccc1Br  inhibition of growth at 5 µM  %              97
16  COC(=O)c1ccc(C2C3=C(O)CC(c4ccc(F)cc4)CC3=Nc3ccccc3N2C(=O)c2ccccc2)cc1 (stereo not drawn)  inhibition of growth at 5 µM  %              98
17           Cc1ccc(NC(=O)Nc2cccc(Cl)c2)cc1F  inhibition of growth at 5 µM  %              52
